// provenance: patent US9273058B2

# experimental.target: CK1δ (Homo sapiens)
# measurement.protocol: CK1δ kinase assay (Caliper LabChip electrophoretic separation of fluoresceinated peptide substrate and product)
# Type: biochemical
# condition.set: 200 pM CK1δ, 50 μM ATP, 1.5 μM peptide, 22 hours at room temperature; read-out: CK1δ IC50 range
readout.name: IC50

INSERT INTO results (compound, experimental_target, readout_name, val) VALUES
  ('NC(=O)c1c(-c2cccc(Cl)c2)nn2c1CN(C(=O)NCC1CCC(F)(F)CC1)CC2 [Compound 180]', 'CK1δ (Homo sapiens)', 'IC50', '0.01 to 10 nM'),
  ('NC(=O)c1c(-c2cccc(Cl)c2)nn2c1CN(C(=O)N[C@H]1C[C@@H](F)C1)CC2 [Compound 176]', 'CK1δ (Homo sapiens)', 'IC50', '0.01 to 10 nM'),
  ('NC(=O)c1c(-c2ccc(F)c(Cl)c2)nn2c1CN(C(=O)N[C@H]1C[C@@H](c3ccc(F)cc3)C1)CC2 [Compound 276]', 'CK1δ (Homo sapiens)', 'IC50', '0.01 to 10 nM'),
  ('CC(C)(C)NC(=O)N1CCn2nc(-c3ccccc3C(N)=O)c(C(N)=O)c2C1 [Compound 131]', 'CK1δ (Homo sapiens)', 'IC50', '100 to 2000 nM'),
  ('NC(=O)c1c(-c2ccc(Cl)c(Cl)c2)nn2c1CN(C(=O)NC1CC(F)(F)C1)C[C@H]2CF [Compound A29]', 'CK1δ (Homo sapiens)', 'IC50', '0.01 to 10 nM'),
  ('CC(C)(NC(=O)N1CCn2nc(-c3ccc(Cl)c(Cl)c3)c(C(N)=O)c2C1)C(F)F [Compound 199]', 'CK1δ (Homo sapiens)', 'IC50', '0.01 to 10 nM'),
  ('NC(=O)c1c(-c2cccc(Cl)c2)nn2c1CN(C(=O)NC1(COC(F)F)CCC1)CC2 [Compound 225]', 'CK1δ (Homo sapiens)', 'IC50', '0.01 to 10 nM'),
  ('NC(=O)c1c(-c2cccc(F)c2)nn2c1CN(C(=O)NC1CCC1)CC2 [Compound 8]', 'CK1δ (Homo sapiens)', 'IC50', '10 to 100 nM');

* * *

# maps each entry to its IC50
# experimental.target: CK1δ (Homo sapiens, UniProt P48730)
# Sequence (P48730 whole entry): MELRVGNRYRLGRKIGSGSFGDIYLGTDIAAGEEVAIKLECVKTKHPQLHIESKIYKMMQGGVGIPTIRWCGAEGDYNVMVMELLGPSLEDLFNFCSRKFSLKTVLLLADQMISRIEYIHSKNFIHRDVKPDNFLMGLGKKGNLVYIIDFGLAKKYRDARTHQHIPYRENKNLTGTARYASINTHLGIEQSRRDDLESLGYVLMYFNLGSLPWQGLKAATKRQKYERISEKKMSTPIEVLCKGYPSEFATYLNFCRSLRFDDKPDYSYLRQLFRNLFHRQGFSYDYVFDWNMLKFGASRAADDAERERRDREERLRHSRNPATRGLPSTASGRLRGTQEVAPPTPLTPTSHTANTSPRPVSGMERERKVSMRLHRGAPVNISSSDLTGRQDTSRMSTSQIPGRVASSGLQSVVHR
# measurement.protocol: CK1δ kinase assay (Caliper LabChip electrophoretic separation of fluoresceinated peptide substrate and product)
# Type: biochemical
# condition.set: 200 pM CK1δ, 50 μM ATP, 1.5 μM peptide, 22 hours at room temperature; read-out: CK1δ IC50 range
readout.name: IC50

INSERT INTO measurements (compound, val) VALUES
  ('CC(C)(COC(F)(F)F)NC(=O)N1CCn2nc(-c3ccc(F)c(Cl)c3)c(C(N)=O)c2C1 [Compound 212]', '0.01 to 10 nM'),
  ('CC1Cn2nc(-c3ccc(F)c(Cl)c3)c(C(N)=O)c2CN1C(=O)NC(C)(C)C (single isomer, unassigned) [Compound 341]', '10 to 100 nM'),
  ('CC(C)(C)NC(=O)N1CCn2nc(-c3ccc4scnc4c3)c(C(N)=O)c2C1 [Compound 149]', '10 to 100 nM'),
  ('NC(=O)c1c(-c2cccc(F)c2)nn2c1CN(C(=O)Nc1cccc3ccccc13)CC2 [Compound 52]', '10 to 100 nM'),
  ('CC1CC(NC(=O)N2CCn3nc(-c4ccc(F)c(Cl)c4)c(C(N)=O)c3C2)C1 (single isomer, unassigned) [Compound 246]', '0.01 to 10 nM'),
  ('NC(=O)c1c(-c2cccc(Cl)c2)nn2c1CN(C(=O)NC13CCC(CF)(CC1)CC3)CC2 [Compound A78]', '0.01 to 10 nM'),
  ('CC1(NC(=O)N2CCn3nc(-c4cccc(Cl)c4)c(C(N)=O)c3C2)CC2(C1)CC2(F)F (single isomer, unassigned) [Compound 330]', '0.01 to 10 nM'),
  ('NC(=O)c1c(-c2ccc(F)c(Cl)c2)nn2c1CN(C(=O)NC13CCC(CC1)C3)CC2 [Compound A73]', '0.01 to 10 nM'),
  ('N#Cc1ccc(NC(=O)N2CCn3nc(-c4cccc(F)c4)c(C(N)=O)c3C2)cc1 [Compound 61]', '0.01 to 10 nM'),
  ('NC(=O)c1c(-c2cccc(F)c2)nn2c1CN(C(=O)Nc1c(F)cc(F)cc1F)CC2 [Compound 40]', '10 to 100 nM'),
  ('NC(=O)c1c(-c2ccc(Cl)c(Cl)c2)nn2c1CN(C(=O)N[C@H]1C[C@@H](F)C1)CC2 [Compound 203]', '0.01 to 10 nM'),
  ('N#Cc1ccc(O[C@H]2C[C@H](NC(=O)N3CCn4nc(-c5cccc(Cl)c5)c(C(N)=O)c4C3)C2)cc1 [Compound 267]', '0.01 to 10 nM'),
  ('NC(=O)c1c(-c2cccc(Cl)c2)nn2c1CN(C(=O)NC1CC(COC(F)F)C1)CC2 (single isomer, unassigned) [Compound 244]', '0.01 to 10 nM'),
  ('CC(C)(C)NC(=O)N1CCn2nc(-c3cccc(F)c3)c(C(N)=O)c2C1 [Compound 4]', '10 to 100 nM'),
  ('NC(=O)c1c(-c2cccc(Cl)c2)nn2c1CN(C(=O)NC1(C(F)F)CC(F)(F)C1)CC2 [Compound 306]', '0.01 to 10 nM'),
  ('CC(C)(O)[C@H](F)CNC(=O)N1CCn2nc(-c3ccc(Cl)c(Cl)c3)c(C(N)=O)c2C1 [Compound 338]', '0.01 to 10 nM'),
  ('NC(=O)c1c(-c2ccc(F)c(Cl)c2)nn2c1CN(C(=O)NC1CC(F)(F)C1)CC2 [Compound 291]', '0.01 to 10 nM'),
  ('CC(C)(C)NC(=O)N1CCn2nc(-c3cccc(-c4ccccc4)c3)c(C(N)=O)c2C1 [Compound 141]', '100 to 2000 nM'),
  ('COC12CCC(NC(=O)N3CCn4nc(-c5cccc(Cl)c5)c(C(N)=O)c4C3)(CC1)C2 [Compound A82]', '0.01 to 10 nM'),
  ('CC1(NC(=O)N2CCn3nc(-c4ccc(F)c(Cl)c4)c(C(N)=O)c3C2)CC(C(F)F)C1 (single isomer, unassigned) [Compound 258]', '0.01 to 10 nM'),
  ('CC1(NC(=O)N2CCn3nc(-c4cccc(Cl)c4)c(C(N)=O)c3C2)CC(F)(F)C1 [Compound 299]', '0.01 to 10 nM'),
  ('CC(C)(NC(=O)N1CCn2nc(-c3ccc(F)c(Cl)c3)c(C(N)=O)c2C1)C(F)F [Compound 185]', '0.01 to 10 nM'),
  ('NC(=O)c1c(-c2cccc(Cl)c2)nn2c1CN(C(=O)NC1(c3ccc(F)cc3)CC(F)(F)C1)CC2 [Compound 309]', '0.01 to 10 nM'),
  ('CC12CC3CC(C)(C1)CC(NC(=O)N1CCn4nc(-c5ccc(F)c(Cl)c5)c(C(N)=O)c4C1)(C3)C2 [Compound A68]', '0.01 to 10 nM'),
  ('CC(C)(C)NC(=O)N1CCn2nc(-c3cc(F)cc(C(F)(F)F)c3)c(C(N)=O)c2C1 [Compound 155]', '100 to 2000 nM'),
  ('NC(=O)c1c(-c2ccc(Cl)c(Cl)c2)nn2c1CN(C(=O)NC1CC(F)(F)C1)CC2 [Compound 294]', '0.01 to 10 nM'),
  ('CC(C)(C)NC(=O)N1Cc2c(C(N)=O)c(-c3ccc(F)c(Cl)c3)nn2CC1C(F)(F)F (single isomer, unassigned) [Compound 347]', '10 to 100 nM'),
  ('NC(=O)c1c(-c2cccc(Cl)c2)nn2c1CN(C(=O)N[C@@H]1CC[C@@H]1C(F)F)CC2 [Compound 239]', '0.01 to 10 nM'),
  ('CN(C)C(=O)C(C)(C)NC(=O)N1CCn2nc(-c3ccc(F)c(Cl)c3)c(C(N)=O)c2C1 [Compound 218]', '0.01 to 10 nM');

* * *

# experimental.target: CK1δ (Homo sapiens, UniProt P48730)
# measurement.protocol: CK1δ kinase assay (Caliper LabChip electrophoretic separation of fluoresceinated peptide substrate and product)
# Format: biochemical
# condition.set: 200 pM CK1δ, 50 μM ATP, 1.5 μM peptide, 22 hours at room temperature; read-out: CK1δ IC50 range
readout.name: IC50

INSERT INTO results (structure_notation, val) VALUES
  ('CO[C@H]1C[C@H](NC(=O)N2CCn3nc(-c4ccc(F)c(Cl)c4)c(C(N)=O)c3C2)C1', '0.01 to 10 nM'),
  ('NC(=O)c1c(-c2ccc(Cl)c(Cl)c2)nn2c1CN(C(=O)NC1CC(F)(F)C1)C[C@@H]2CF', '0.01 to 10 nM'),
  ('NC(=O)c1c(-c2cccc(F)c2)nn2c1CN(C(=O)NC1CCCCC1)CC2', '0.01 to 10 nM'),
  ('NC(=O)c1c(-c2ccc(F)c(Cl)c2)nn2c1CN(C(=O)NC1CC3(CC3)C1)CC2', '0.01 to 10 nM'),
  ('CC(C)NC(=O)C(C)(C)NC(=O)N1CCn2nc(-c3ccc(F)c(Cl)c3)c(C(N)=O)c2C1', '10 to 100 nM'),
  ('NC(=O)c1c(-c2ccc(Cl)c(Cl)c2)nn2c1CN(C(=O)NC13CCC(c4ccc(F)cc4)(CC1)CC3)CC2', '0.01 to 10 nM'),
  ('CC(C)(C)NC(=O)N1CCn2nc(-c3cnc(N4CCOCC4)nc3)c(C(N)=O)c2C1', '100 to 2000 nM');
